# Test system: RAW-Dual (murine macrophage reporter line)
# EXPERIMENTAL_DETAILS: NF-kB reporter (SEAP) activity fold change vs agonist alone; higher = enhanced NF-kB activity
# EXPERIMENTAL_CONTEXT: modulator concentration 10 µM; agonist: CpG ODN 1826 0.5 ug/mL
Listed here are compounds together with their documented NF-kB reporter.
Write no unit; give the number alone.

O=C(NC1CCCCC1)N(Cc1cnc2ccccn12)c1ccccc1 = 1.01
CCOc1ccccc1OCCOCCOc1ccc(Br)cc1Cl = 0.905
COc1ccc(C2Nc3ccccc3-c3nnc(SCc4ccc(C)cc4)nc3O2)cc1C (stereo not drawn) = 0.964
O=C(NCC1(O)Cc2ccccc2C1)c1cccc(Br)c1 = 1.09
CC(C)NC[C@H](O)COc1ccc(CCOCC2CC2)cc1.Cl = 1.15
COc1ccccc1C1C(C(C)=O)=C(O)C(=O)N1CCN(C)C (stereo not drawn) = 0.967
CN1CCN(CC(O)Cn2c3ccccc3c3ccccc32)CC1.O=C(O)C(=O)O (stereo not drawn) = 0.964
COc1ccc(CNCc2ccc3ccccc3c2)cc1OC = 0.722
O=C(NN=Cc1c(O)ccc2ccccc12)c1ccncc1 = 2.37
CC1C(=O)N2CCCc3cc(S(=O)(=O)N4CCN(c5cccc(Cl)c5)CC4)cc1c32 (stereo not drawn) = 0.755

Exam item: Can you share its NF-kB reporter? I mean this compound: COc1ccc(C(=O)Nc2nc(C)c(C)s2)cc1OC
Marked response: 0.904

Exam item: Can you share its NF-kB reporter? I mean this compound: NC(=O)c1cc2ccccc2oc1=NCc1ccccc1
Marked response: 0.907

Exam item: Can you share its NF-kB reporter? I mean this compound: CCOC(=O)C(C)N(c1ccc(OC)cc1)S(C)(=O)=O (stereo not drawn)
Marked response: 0.99

Exam item: Can you share its NF-kB reporter? I mean this compound: CC(=O)N1CCN(c2ccc(OC[C@H]3CO[C@](Cn4ccnc4)(c4ccc(Cl)cc4Cl)O3)cc2)CC1
Marked response: 0.723

Exam item: Can you share its NF-kB reporter? I mean this compound: O=S(=O)(NCCOCc1ccccc1)c1ccccc1
Marked response: 1.13

Exam item: Can you share its NF-kB reporter? I mean this compound: Cc1cc(C)c2c(c1)[C@@H](N(Cc1cc(C(F)(F)F)cc(C(F)(F)F)c1)c1nnn(C)n1)CCCN2C[C@H]1CC[C@H](C(=O)O)CC1
Marked response: 0.717

Exam item: Can you share its NF-kB reporter? I mean this compound: CCC1(c2cnc[nH]2)Cc2ccccc2C1
Marked response: 0.746

Exam item: Can you share its NF-kB reporter? I mean this compound: COC(CNS(=O)(=O)c1ccccc1Br)c1ccc(C)s1 (stereo not drawn)
Marked response: 1.04

Exam item: Can you share its NF-kB reporter? I mean this compound: CCn1cc(C(=O)O)c(=O)c2cc(F)c(N3CCN(C)CC3)cc21.CS(=O)(=O)O.O.O
Marked response: 0.788

Exam item: Can you share its NF-kB reporter? I mean this compound: COc1cc(CNCc2ccc3ccccc3c2)cc(OC)c1
Marked response: 1.26

Exam item: Can you share its NF-kB reporter? I mean this compound: COC(=O)C1=CN(CC2CCCO2)C=C(C(=O)OC)C1c1ccc2c(c1)OCO2 (stereo not drawn)
Marked response: 1.03

Exam item: Can you share its NF-kB reporter? I mean this compound: Cc1cc(Cl)ccc1OCC(O)CN1CC(C)OC(C)C1.Cl (stereo not drawn)
Marked response: 0.764

Exam item: Can you share its NF-kB reporter? I mean this compound: O=C(NCCN1CCOCC1)c1ccc(F)cc1
Marked response: 1.11

Exam item: Can you share its NF-kB reporter? I mean this compound: S=C(NCc1ccc2c(c1)OCO2)N1CCN(c2ncnc3c2oc2ccccc23)CC1
Marked response: 0.943

---

# Tested on: RAW-Dual (murine macrophage reporter line)
# EXPERIMENTAL_DETAILS: NF-kB reporter (SEAP) activity fold change vs agonist alone; higher = enhanced NF-kB activity
# EXPERIMENTAL_CONTEXT: modulator concentration 10 µM; agonist: LPS 0.1 ug/mL
Class y: NF-kB reporter at least 1. Class n: NF-kB reporter below 1.

O=S(=O)(NN=Cc1c[nH]c2ccccc12)c1ccc(Cl)cc1 = n

Exam item: Decide: NF-kB reporter of COc1ccc(C=C(NC(=O)c2ccccc2)C(=O)NCCC(=O)OCc2ccccc2)cc1 >= 1?
Marked response: y

Exam item: Decide: NF-kB reporter of O=c1ccc2ccc(OCCCCN3CCN(c4cccc5sccc45)CC3)cc2[nH]1 >= 1?
Marked response: n

Exam item: Decide: NF-kB reporter of CNCCC[C@]12CC[C@H](c3ccccc31)c1ccccc12 >= 1?
Marked response: n

Exam item: Decide: NF-kB reporter of O=C(CSc1nnc(COc2ccc(Cl)cc2)o1)N1CCCc2ccccc21 >= 1?
Marked response: y

Exam item: Decide: NF-kB reporter of CCOc1ccc(S(=O)(=O)NC(C)(C)C)cc1C >= 1?
Marked response: n

Exam item: Decide: NF-kB reporter of Cc1noc(C)c1CN1CCC(C(F)(F)F)CC1.Cl >= 1?
Marked response: n

---

# System: RAW-Dual (murine macrophage reporter line)
# EXPERIMENTAL_DETAILS: NF-kB reporter (SEAP) activity fold change vs agonist alone; higher = enhanced NF-kB activity
# EXPERIMENTAL_CONTEXT: modulator concentration 10 µM; agonist: LPS 0.1 ug/mL
Listed here are compounds together with their documented NF-kB reporter.
Write no unit; give the number alone.

The examples below pair each entry with its known result.
CN1CCN(C(=O)c2cc(-c3ccccc3)nc3ccccc23)CC1 = 0.906
Cc1cnc2c(c1N1CCC(Cc3ccccc3)CC1)c(=O)n(C)c(=O)n2C = 1.08
CCc1c(C)[nH]c2c1C(=O)C(CN1CCOCC1)CC2.Cl (stereo not given) = 0.221
CCOc1ccccc1NC(=O)NCc1sc(-c2ccccc2Cl)nc1C = 1.07
O=C(Nc1ccc(F)cc1)c1ccccc1Br = 1.06
CC(=O)OC(OC(C)=O)c1ccc([N+](=O)[O-])cc1 = 1.06

Exam item: Can you share its NF-kB reporter? I mean this compound: CCOC(=O)C1CCCN(S(=O)(=O)c2ccc(F)cc2)C1 (stereo not given)
Marked response: 1.1

Exam item: Can you share its NF-kB reporter? I mean this compound: Cc1cnc(C(=O)O)c[n+]1[O-]
Marked response: 0.988

Exam item: Can you share its NF-kB reporter? I mean this compound: COc1c(C)c2c(c(O)c1C/C=C(\C)CCC(=O)O)C(=O)OC2
Marked response: 0.146

Exam item: Can you share its NF-kB reporter? I mean this compound: N#Cc1nc(-c2ccc(COc3ccc(Cl)cc3)o2)oc1N1CCCCC1
Marked response: 1.29

---

# System: RAW-Dual (murine macrophage reporter line)
# EXPERIMENTAL_DETAILS: NF-kB reporter (SEAP) activity fold change vs agonist alone; higher = enhanced NF-kB activity
# EXPERIMENTAL_CONTEXT: modulator concentration 10 µM; agonist: LPS 0.1 ug/mL
MEASURED_ENDPOINT: NF-kB reporter

The examples below pair each entry with its known result.
COc1cc(C)n(CCNC(=O)c2ccccc2C(F)(F)F)c(=O)c1 = 0.933
COc1cccc(-c2csc(C(C#N)=CNc3cc(Cl)ccc3OC)n2)c1 = 1.06

Exam item: Can you share its NF-kB reporter? I mean this molecule: Cc1cc(OCC(=O)Nc2ccc(Cl)c(C(F)(F)F)c2)ccc1Cl
Marked response: 0.942

Exam item: Can you share its NF-kB reporter? I mean this molecule: Cn1nc(CNS(=O)(=O)c2cccc(C(F)(F)F)c2)c2c1CCOC2
Marked response: 1.08

Exam item: Can you share its NF-kB reporter? I mean this molecule: CN(C/C=C/C#CC(C)(C)C)Cc1cccc2ccccc12.Cl
Marked response: 0.905

Exam item: Can you share its NF-kB reporter? I mean this molecule: Cn1ncc(Cl)c1-c1cc(C(=O)N[C@H](CN)Cc2ccc(F)c(F)c2)oc1Cl
Marked response: 1.49

Exam item: Can you share its NF-kB reporter? I mean this molecule: Cc1ccc(-c2cc(C(F)(F)F)nn2-c2ccc(S(N)(=O)=O)cc2)cc1
Marked response: 0.481

Exam item: Can you share its NF-kB reporter? I mean this molecule: O=C1CCCc2nn(-c3ccccc3)nc21
Marked response: 1.05

---

# Tested on: RAW-Dual (murine macrophage reporter line)
# EXPERIMENTAL_DETAILS: IRF reporter (Lucia luciferase) activity fold change vs agonist alone; higher = enhanced IRF activity
# EXPERIMENTAL_CONTEXT: modulator concentration 10 µM; agonist: MPLA […]
Listed here are molecules together with their documented IRF reporter.
Write no unit; give the number alone.

The examples below pair each entry with its known result.
Cl.Nc1c(Br)cc(Br)cc1CNC1CCC(O)CC1 (stereo not drawn) = 0.999
C=CCc1ccc(O)c(OC)c1 = 1.01

Exam item: Can you share its IRF reporter? I mean this molecule: CC(C)(O)CNC(=O)c1cccc([N+](=O)[O-])c1
Marked response: 0.979
